# test target: Cyclin-dependent kinase 13 (Homo sapiens, UniProt Q14004); note: in the data inactive means no Kd found up to 30 µM
# Sequence (Q14004 whole entry): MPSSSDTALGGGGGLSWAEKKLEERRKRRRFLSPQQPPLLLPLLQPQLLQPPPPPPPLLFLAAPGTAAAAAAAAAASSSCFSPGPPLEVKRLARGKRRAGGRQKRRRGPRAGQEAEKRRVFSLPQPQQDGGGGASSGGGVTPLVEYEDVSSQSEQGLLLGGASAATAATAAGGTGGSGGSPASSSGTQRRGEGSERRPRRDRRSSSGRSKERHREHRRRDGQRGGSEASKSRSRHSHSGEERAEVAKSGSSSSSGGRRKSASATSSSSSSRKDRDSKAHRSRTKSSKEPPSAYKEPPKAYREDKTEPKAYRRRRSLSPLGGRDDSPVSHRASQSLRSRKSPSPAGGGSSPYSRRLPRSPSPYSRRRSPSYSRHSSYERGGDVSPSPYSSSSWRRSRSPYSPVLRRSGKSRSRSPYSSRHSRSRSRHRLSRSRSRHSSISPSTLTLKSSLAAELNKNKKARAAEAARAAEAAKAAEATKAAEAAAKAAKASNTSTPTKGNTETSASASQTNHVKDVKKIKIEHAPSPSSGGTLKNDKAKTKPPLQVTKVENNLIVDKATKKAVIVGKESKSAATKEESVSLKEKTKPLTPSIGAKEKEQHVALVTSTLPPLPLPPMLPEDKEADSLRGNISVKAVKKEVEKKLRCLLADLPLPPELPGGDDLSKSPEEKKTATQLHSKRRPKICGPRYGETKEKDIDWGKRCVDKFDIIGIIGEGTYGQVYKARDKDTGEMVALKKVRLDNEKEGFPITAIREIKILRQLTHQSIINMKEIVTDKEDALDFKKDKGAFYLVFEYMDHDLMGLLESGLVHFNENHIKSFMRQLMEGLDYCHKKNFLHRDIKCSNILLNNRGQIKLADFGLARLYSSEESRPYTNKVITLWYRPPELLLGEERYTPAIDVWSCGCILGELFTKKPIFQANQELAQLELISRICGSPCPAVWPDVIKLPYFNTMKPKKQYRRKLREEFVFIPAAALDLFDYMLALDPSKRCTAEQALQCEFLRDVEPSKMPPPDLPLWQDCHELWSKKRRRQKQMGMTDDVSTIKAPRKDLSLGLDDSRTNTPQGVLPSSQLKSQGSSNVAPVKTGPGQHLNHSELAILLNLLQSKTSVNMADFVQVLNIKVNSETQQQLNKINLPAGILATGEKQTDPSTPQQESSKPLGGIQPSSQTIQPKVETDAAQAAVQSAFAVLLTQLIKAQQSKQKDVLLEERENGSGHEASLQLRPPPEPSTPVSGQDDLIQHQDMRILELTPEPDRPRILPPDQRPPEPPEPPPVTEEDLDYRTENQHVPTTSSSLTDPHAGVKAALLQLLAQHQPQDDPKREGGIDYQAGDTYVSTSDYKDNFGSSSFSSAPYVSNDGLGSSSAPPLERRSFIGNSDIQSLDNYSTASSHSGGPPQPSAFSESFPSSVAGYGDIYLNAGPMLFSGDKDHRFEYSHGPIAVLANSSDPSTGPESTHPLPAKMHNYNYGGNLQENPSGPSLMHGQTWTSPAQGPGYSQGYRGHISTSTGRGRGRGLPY
Active and inactive are the calls of the source.
// classify into Yes for active, No for inactive

Could you check what this test reported for C[C@@H](c1ccc2nccn2c1)n1nnc2ncc(-c3cnn(C)c3)nc21 ?
No

Could you check what this test reported for OCCn1cc(-c2cnc3nnn(Cc4ccc5ncccc5c4)c3n2)cn1 ?
No

Could you check what this test reported for O=C(Nc1ccc(-c2ccnc(Nc3ccc(N4CCOCC4)cc3)n2)cc1)C1CCCN1 (stereo not given) ?
No

Could you check what this test reported for Cc1cc(-c2cc(O)ccc2Cl)cc2nnc(Nc3ccc(OCCN4CCCC4)cc3)nc12 ?
No

Could you check what this test reported for CCc1cnn2c(NCc3ccc[n+]([O-])c3)cc(N3CCCC[C@H]3CCO)nc12 ?
Yes

Could you check what this test reported for CNC(=O)c1ccc(C)c(-n2c(C)cc(OCc3ccc(F)cc3F)c(Br)c2=O)c1 ?
No

Could you check what this test reported for COc1cc2nccc(Oc3ccc(NC(=O)NC4CC4)c(Cl)c3)c2cc1C(N)=O ?
No

Could you check what this test reported for Cc1ccc(S(=O)(=O)Nc2nc3ccccc3nc2Nc2ccc3nsnc3c2)cc1 ?
No

Could you check what this test reported for CN1CCC(COc2cnc(-c3cccc(Cn4nc(-c5cccc(C#N)c5)ccc4=O)c3)nc2)CC1 ?
No

Could you check what this test reported for Cn1ncc(Cl)c1-c1cc(C(=O)N[C@H](CN)Cc2cccc(F)c2)sc1Cl ?
No

----------
# test target: Serine/threonine-protein kinase ICK (Homo sapiens); note: in the data inactive means no Kd found up to 30 µM
# Sequence (Q9UPZ9 whole entry): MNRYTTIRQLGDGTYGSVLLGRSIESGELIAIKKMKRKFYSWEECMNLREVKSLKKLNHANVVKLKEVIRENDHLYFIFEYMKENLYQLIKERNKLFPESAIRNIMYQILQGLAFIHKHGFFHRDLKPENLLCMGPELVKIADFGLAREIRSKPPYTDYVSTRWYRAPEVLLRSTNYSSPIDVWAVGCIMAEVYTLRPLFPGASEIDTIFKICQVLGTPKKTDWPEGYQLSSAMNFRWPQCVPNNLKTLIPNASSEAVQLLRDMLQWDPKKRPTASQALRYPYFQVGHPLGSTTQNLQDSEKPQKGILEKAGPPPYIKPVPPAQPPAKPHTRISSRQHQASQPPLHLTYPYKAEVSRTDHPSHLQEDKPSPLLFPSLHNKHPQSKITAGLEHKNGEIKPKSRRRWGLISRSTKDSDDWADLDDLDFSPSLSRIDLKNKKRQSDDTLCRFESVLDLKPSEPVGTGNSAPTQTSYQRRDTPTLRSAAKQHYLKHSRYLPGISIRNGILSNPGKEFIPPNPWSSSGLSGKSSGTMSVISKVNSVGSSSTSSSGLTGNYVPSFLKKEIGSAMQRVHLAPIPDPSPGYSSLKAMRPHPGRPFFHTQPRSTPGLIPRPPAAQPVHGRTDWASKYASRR
The source made the active and inactive calls.
// classify into yes for active, no for inactive

Could you check what this test reported for COCCNCc1ccc(-c2cc3nccc(Oc4ccc(NC(=S)NC(=O)Cc5ccc(F)cc5)cc4F)c3s2)nc1 [GLESATINIB] ?
no

Could you check what this test reported for Cc1c(F)cc(C(=O)NC2CC2)cc1-c1ccc(C(=O)NCC(C)(C)C)cn1 [LOSMAPIMOD] ?
no

Could you check what this test reported for CC(=O)Nc1cccc(-n2c(=O)n(C3CC3)c(=O)c3c(Nc4ccc(I)cc4F)n(C)c(=O)c(C)c32)c1 [TRAMETINIB] ?
no

Could you check what this test reported for C1=C/COCc2cc(ccc2OCCN2CCCC2)Nc2nccc(n2)-c2cccc(c2)COC/1 [PACRITINIB] ?
yes

Could you check what this test reported for O=C1NC(=O)/C(=C/c2ccc3nccc(-c4ccncc4)c3c2)S1 [GSK-1059615] ?
no

Could you check what this test reported for Cc1ccc(-n2nc(C(C)(C)C)cc2NC(=O)NCc2cc(F)ccc2Oc2ccc3c(cnn3CCO)c2)cc1 [PEXMETINIB] ?
no

Could you check what this test reported for CC[C@@H]1C(=O)N(C)c2cnc(Nc3ccc(C(=O)N[C@H]4CC[C@H](N5CCN(CC6CC6)CC5)CC4)cc3OC)nc2N1C(C)C [VOLASERTIB] ?
no

----------
# test target: Activin receptor type-1B (Homo sapiens); note: in the data inactive means no Kd found up to 30 µM
# Sequence (P36896 whole entry): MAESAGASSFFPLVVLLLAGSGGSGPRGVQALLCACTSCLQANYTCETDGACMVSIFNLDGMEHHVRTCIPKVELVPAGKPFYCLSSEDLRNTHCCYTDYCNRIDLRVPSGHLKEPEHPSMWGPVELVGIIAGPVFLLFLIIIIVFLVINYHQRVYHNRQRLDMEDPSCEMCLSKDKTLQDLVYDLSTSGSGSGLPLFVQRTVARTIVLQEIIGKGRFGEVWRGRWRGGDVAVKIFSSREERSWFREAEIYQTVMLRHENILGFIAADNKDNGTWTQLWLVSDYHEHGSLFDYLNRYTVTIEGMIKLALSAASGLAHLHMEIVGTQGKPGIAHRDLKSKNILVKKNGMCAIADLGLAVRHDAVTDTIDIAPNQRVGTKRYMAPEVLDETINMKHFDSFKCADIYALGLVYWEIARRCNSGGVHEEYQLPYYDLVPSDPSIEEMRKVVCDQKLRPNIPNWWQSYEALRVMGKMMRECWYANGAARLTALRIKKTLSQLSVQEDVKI
Active and inactive are the calls of the source.
// classify into class 1 (active), class 0 (inactive)

Could you check what this test reported for CNC(=O)CN1CCC(Oc2cc3c(Nc4cccc(Cl)c4F)ncnc3cc2OC)CC1 ?
class 0

Could you check what this test reported for CC[C@@H]1C(=O)N(C)c2cnc(Nc3ccc(C(=O)N[C@H]4CC[C@H](N5CCN(CC6CC6)CC5)CC4)cc3OC)nc2N1C(C)C ?
class 0

Could you check what this test reported for Cc1cc([C@@H](C)Nc2ccccc2C(=O)O)c2nc(N3CCOCC3)cc(=O)n2c1 ?
class 0

Could you check what this test reported for Cn1ncc(Cl)c1-c1cc(C(=O)N[C@H](CN)Cc2cccc(F)c2)sc1Cl ?
class 0

Could you check what this test reported for Cc1ccc(NC(=O)c2ccc(CN3CC[C@H](N(C)C)C3)c(C(F)(F)F)c2)cc1Nc1nccc(-c2cncnc2)n1 ?
class 0

Could you check what this test reported for C1=C/COCc2cc(ccc2OCCN2CCCC2)Nc2nccc(n2)-c2cccc(c2)COC/1 ?
class 0

Could you check what this test reported for COc1cc(N2CCC(N3CCN(C)CC3)CC2)ccc1Nc1ncnc(Nc2ccccc2S(=O)(=O)C(C)C)n1 ?
class 0

Could you check what this test reported for Cc1nc(N)sc1-c1ccnc(Nc2ccc(N3CCOCC3)cc2)n1 ?
class 1

Could you check what this test reported for OCCn1cc(-c2cnc3nnn(Cc4ccc5ncccc5c4)c3n2)cn1 ?
class 0

Could you check what this test reported for O=C(O)[C@]1(Cc2cccc(Nc3nccs3)n2)CC[C@@H](Oc2cccc(Cl)c2F)CC1 ?
class 1

Could you check what this test reported for CN(C)C(=O)c1cc2cnc(Nc3ccc(N4CCNCC4)cn3)nc2n1C1CCCC1 ?
class 0

Could you check what this test reported for COC(=O)[C@@]1(O)C[C@H]2O[C@]1(C)n1c3ccccc3c3c4c(c5c6ccccc6n2c5c31)C(=O)NC4 [K-252A] ?
class 1

Could you check what this test reported for Cn1cc(-c2ccc3nnc(C(F)(F)c4ccc5ncccc5c4)n3n2)cn1 ?
class 0

Could you check what this test reported for CCN1CCN(Cc2ccc(-c3cc4c(N[C@H](C)c5ccccc5)ncnc4[nH]3)cc2)CC1 ?
class 0

Could you check what this test reported for Cn1cc(-c2ccc(F)c(C(F)(F)F)c2)nc1C1CCN(c2ncnc3[nH]ncc23)CC1 ?
class 0

Could you check what this test reported for Cc1ccc(-n2nc(C(C)(C)C)cc2NC(=O)NCc2cc(F)ccc2Oc2ccc3c(cnn3CCO)c2)cc1 ?
class 0

----------
# test target: Serine/threonine-protein kinase ICK (Homo sapiens); note: in the data inactive means no Kd found up to 30 µM
Activity calls are given as the source filed them.
// classify into Yes = active, No = inactive

Could you check what this test reported for COc1cc(CCc2cc(NC(=O)c3ccc(N4C[C@@H](C)N[C@@H](C)C4)cc3)n[nH]2)cc(OC)c1 ?
No

Could you check what this test reported for COc1cc(N2CCC(N3CCN(C)CC3)CC2)ccc1Nc1ncnc(Nc2ccccc2S(=O)(=O)C(C)C)n1 ?
No

Could you check what this test reported for CCN1CCN(Cc2ccc(-c3cc4c(N[C@H](C)c5ccccc5)ncnc4[nH]3)cc2)CC1 ?
No

Could you check what this test reported for COc1cc(OC)c(/C=C/S(=O)(=O)Cc2ccc(OC)c(NCC(=O)O)c2)c(OC)c1 ?
No

Could you check what this test reported for CCCS(=O)(=O)Nc1ccc(F)c(C(=O)c2c[nH]c3ncc(-c4ccc(Cl)cc4)cc23)c1F ?
No

Could you check what this test reported for C[C@@H](c1ccc2nccn2c1)n1nnc2ncc(-c3cnn(C)c3)nc21 ?
No

Could you check what this test reported for CN1CC[C@@H](c2c(O)cc(O)c3c(=O)cc(-c4ccccc4Cl)oc23)[C@@H]1CO ?
Yes

Could you check what this test reported for CCS(=O)(=O)N1CC(CC#N)(n2cc(-c3ncnc4[nH]ccc34)cn2)C1 ?
No

Could you check what this test reported for CN1CCC(CNc2ccc3ncc(-c4cccc(OC(F)(F)F)c4)n3n2)CC1 ?
No

Could you check what this test reported for N[C@@H]1CCCN(c2c(/C=C3\SC(=O)NC3=O)cccc2-c2ccccc2)C1 ?
No

Could you check what this test reported for CCn1c(=O)c(-c2cc[nH]n2)cc2c(C)nc(N)nc21 ?
No

Could you check what this test reported for CCc1cnn2c(NCc3ccc[n+]([O-])c3)cc(N3CCCC[C@H]3CCO)nc12 ?
Yes

Could you check what this test reported for CNC(=O)CN1CCC(Oc2cc3c(Nc4cccc(Cl)c4F)ncnc3cc2OC)CC1 ?
No

Could you check what this test reported for Cc1cc2c(F)c(Oc3ncnn4cc(OC[C@@H](C)OC(=O)[C@H](C)N)c(C)c34)ccc2[nH]1 [BRIVANIB ALANINATE] ?
No

Could you check what this test reported for O=C(Nc1ccc(-c2ccnc(Nc3ccc(N4CCOCC4)cc3)n2)cc1)C1CCCN1 (stereo not drawn) ?
No

Could you check what this test reported for COc1cc2nccc(Oc3ccc(NC(=O)Nc4cc(C)on4)c(Cl)c3)c2cc1OC ?
No

Could you check what this test reported for Cn1cc(-c2ccc(F)c(C(F)(F)F)c2)nc1C1CCN(c2ncnc3[nH]ncc23)CC1 ?
No

Could you check what this test reported for Cn1cc(-c2ccc3nnc(C(F)(F)c4ccc5ncccc5c4)n3n2)cn1 ?
No

Could you check what this test reported for Cc1cc(Nc2cc(N3CCN(C)CC3)nc(/C=C/c3ccccc3)n2)n[nH]1 ?
No

Could you check what this test reported for Cc1cc(-c2cc(O)ccc2Cl)cc2nnc(Nc3ccc(OCCN4CCCC4)cc3)nc12 ?
No

Could you check what this test reported for CNS(=O)(=O)Nc1nccc(Cc2c(C)c3ccc(Oc4ncccn4)cc3oc2=O)c1F ?
No

Could you check what this test reported for CNC(=O)c1ccc(-c2cnc3ncc(Cc4ccc5ncccc5c4)n3n2)cc1F ?
No

Could you check what this test reported for O=C(Nc1cccc(Cl)c1)Nc1ncc(CCNc2ncnc3ccsc23)s1 ?
No

Could you check what this test reported for Cc1ccc(S(=O)(=O)Nc2nc3ccccc3nc2Nc2ccc3nsnc3c2)cc1 ?
No

Could you check what this test reported for Cc1ccc(NC(=O)c2ccc(CN3CC[C@H](N(C)C)C3)c(C(F)(F)F)c2)cc1Nc1nccc(-c2cncnc2)n1 ?
No

Could you check what this test reported for COc1cc2nccc(Oc3ccc(NC(=O)NC4CC4)c(Cl)c3)c2cc1C(N)=O ?
No

Could you check what this test reported for CN(C)C(=O)c1cc2cnc(Nc3ccc(N4CCNCC4)cn3)nc2n1C1CCCC1 ?
No

Could you check what this test reported for C=CC(=O)N1CCC(Oc2cc3c(Nc4ccc(Cl)c(Cl)c4F)ncnc3cc2OC)CC1 ?
No

Could you check what this test reported for Cc1cc([C@@H](C)Nc2ccccc2C(=O)O)c2nc(N3CCOCC3)cc(=O)n2c1 ?
No

Could you check what this test reported for CNC(=O)c1cc(Oc2ccc(NC(=O)Nc3ccc(Cl)c(C(F)(F)F)c3)c(F)c2)ccn1 ?
No

Could you check what this test reported for CC(C)Nc1cc(-c2c[nH]c(C(=O)N[C@H](CO)c3cccc(Cl)c3)c2)c(Cl)cn1 ?
No

Could you check what this test reported for CC[C@H](Nc1ncnc2[nH]cnc12)c1nc2cccc(F)c2c(=O)n1-c1ccccc1 ?
No

Could you check what this test reported for O=C(O)[C@]1(Cc2cccc(Nc3nccs3)n2)CC[C@@H](Oc2cccc(Cl)c2F)CC1 ?
No
